target: HDAC 1 (Homo sapiens, UniProt Q13547); assay: HDAC enzyme fluorescence assay, HDAC 1; conditions: recombinant HDAC enzyme, Boc-Lys(acetyl)-AMC
Sequence (Q13547 whole entry, species assumed): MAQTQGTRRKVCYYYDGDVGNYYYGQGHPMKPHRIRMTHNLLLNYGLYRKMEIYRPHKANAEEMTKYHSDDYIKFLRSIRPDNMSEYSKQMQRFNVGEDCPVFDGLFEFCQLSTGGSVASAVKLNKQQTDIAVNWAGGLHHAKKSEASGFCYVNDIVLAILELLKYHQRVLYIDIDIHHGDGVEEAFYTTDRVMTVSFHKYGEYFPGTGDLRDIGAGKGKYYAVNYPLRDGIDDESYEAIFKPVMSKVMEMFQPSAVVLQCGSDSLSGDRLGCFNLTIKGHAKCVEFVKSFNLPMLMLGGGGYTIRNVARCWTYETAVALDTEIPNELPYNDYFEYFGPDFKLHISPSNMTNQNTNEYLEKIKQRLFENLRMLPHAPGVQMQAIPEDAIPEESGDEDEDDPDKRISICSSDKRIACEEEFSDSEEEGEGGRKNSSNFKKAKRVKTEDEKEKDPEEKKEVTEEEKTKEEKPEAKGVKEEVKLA
endpoint_label: IC50 (µM)
Answer in µM, number only, no unit symbol.

Q. Observed IC50 on HDAC 1 (Homo sapiens, UniProt Q13547) for COc1ccc([S+]([O-])C/C=C\SSCc2ccccc2)cc1 (stereo not shown) [Example 32] , please.
A. 4.55

Q. Try this molecule too: [O-][S+](C/C=C\SSCc1ccccc1)c1ccccc1 (stereo not shown) [Example 6]
A. 3.89

Q. Try this molecule too: COc1cccc([S+]([O-])C/C=C\SSCc2ccc(Cl)cc2)c1 (stereo not shown) [Example 24]
A. 1.27

Q. Try this molecule too: CCCSS/C=C\C[S+]([O-])c1cccc(OC)c1 (stereo not shown) [Example 18]
A. 3.52

----------
Assignment: determine reported IC50 for the given compounds.
molecular target: HDAC 8 (Homo sapiens, UniProt Q9BY41); test: HDAC enzyme fluorescence assay, HDAC 8; type: biochemical; settings: recombinant HDAC enzyme, Boc-Lys(acetyl)-AMC; read-out: IC50 HDAC 8
Sequence (Q9BY41 whole entry, species assumed): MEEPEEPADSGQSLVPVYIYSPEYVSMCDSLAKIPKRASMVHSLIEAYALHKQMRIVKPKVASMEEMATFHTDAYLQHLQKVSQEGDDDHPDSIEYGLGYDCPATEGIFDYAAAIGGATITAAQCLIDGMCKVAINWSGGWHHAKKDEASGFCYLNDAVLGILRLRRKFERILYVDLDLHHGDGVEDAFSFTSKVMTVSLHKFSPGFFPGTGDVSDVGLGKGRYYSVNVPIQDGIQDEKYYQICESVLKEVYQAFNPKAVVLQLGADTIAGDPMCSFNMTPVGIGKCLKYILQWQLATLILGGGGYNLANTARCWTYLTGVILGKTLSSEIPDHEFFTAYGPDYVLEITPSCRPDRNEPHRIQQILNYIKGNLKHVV
Answer in µM, number only, no unit symbol.

Q. May I ask what IC50 has been recorded for CCCSS/C=C\C[S+]([O-])c1ccc(OC)cc1 (stereo not drawn) ?
A. 0.29

Q. Try this compound too: [O-][S+](C/C=C\SSCc1ccccc1)c1ccccc1 (stereo not drawn)
A. 0.043

Q. Try this compound too: COc1ccc([S+]([O-])C/C=C\SSCc2ccccc2)cc1 (stereo not drawn)
A. 0.037

----------
molecular target: HDAC 8 (Homo sapiens, UniProt Q9BY41); assay: HDAC enzyme fluorescence assay, HDAC 8; format: biochemical; parameters: concentration or dose not given beside the values; settings: (HDAC inhibitory activity of example compound/HDAC inhibitory activity of SAHA) × 100
Assignment: determine reported Inhibitory activity (%) HDAC 8 for the given molecules.
Remember to put the unit after the number in your answer.

Q. Observed Inhibitory activity (%) HDAC 8 on HDAC 8 (Homo sapiens, UniProt Q9BY41) for C=CCSS/C=C/C[S+]([O-])c1cccc(OC)c1 (centres unmarked) [Example 15] , please.
A. 84.6%

Q. Try this molecule too: CCCSS/C=C\C[S+]([O-])c1ccccc1 (centres unmarked) [Example 4]
A. 115.2%

Q. Try this molecule too: [O-][S+](C/C=C/SSCc1ccc(Cl)cc1)c1ccccc1 (centres unmarked) [Example 11]
A. 74.4%

Q. Try this molecule too: C=CCSS/C=C\C[S+]([O-])c1ccc(OC)cc1 (centres unmarked) [Example 28]
A. 73.5%

Q. Try this molecule too: [O-][S+](C/C=C\SSCc1ccc(Cl)cc1)c1ccccc1 (centres unmarked) [Example 12]
A. 105.4%

Q. Try this molecule too: COc1ccc(CSS/C=C/C[S+]([O-])c2ccccc2)cc1 (centres unmarked) [Example 9]
A. 48.7%

Q. Try this molecule too: COc1cccc([S+]([O-])C/C=C\SSCc2ccc(Cl)c(Cl)c2)c1 (centres unmarked) [Example 26]
A. 161.9%

Q. Try this molecule too: COc1cccc([S+]([O-])C/C=C/SSCc2ccc(F)cc2)c1 (centres unmarked) [Example 21]
A. 109.2%

Q. Try this molecule too: COc1ccc([S+]([O-])C/C=C\SSCc2ccc(Cl)c(Cl)c2)cc1 (centres unmarked) [Example 38]
A. 55.5%

Q. Try this molecule too: C=CCSS/C=C/C[S+]([O-])CC=C (centres unmarked) [Comparative Example 1, E-Ajoene, reference compound]
A. 73.4%

Q. Try this molecule too: COc1ccc([S+]([O-])C/C=C/SSCc2ccccc2)cc1 (centres unmarked) [Example 31]
A. 74.6%

Q. Try this molecule too: CCCSS/C=C/C[S+]([O-])c1ccccc1 (centres unmarked) [Example 3]
A. 43.8%

Q. Try this molecule too: COc1ccc([S+]([O-])C/C=C/SSCc2ccc(F)cc2)cc1 (centres unmarked) [Example 33]
A. 111.7%

Q. Try this molecule too: CCCSS/C=C/C[S+]([O-])c1cccc(OC)c1 (centres unmarked) [Example 17]
A. 78.4%

Q. Try this molecule too: C=CCSS/C=C/C[S+]([O-])c1ccccc1 (centres unmarked) [Example 1]
A. 32.1%

Q. Try this molecule too: COc1cccc([S+]([O-])C/C=C/SSCc2ccccc2)c1 (centres unmarked) [Example 19]
A. 88.1%

Q. Try this molecule too: COc1ccc(CSS/C=C\C[S+]([O-])c2ccccc2)cc1 (centres unmarked) [Example 10]
A. 73.8%

Q. Try this molecule too: [O-][S+](C/C=C\SSCc1ccccc1)c1ccccc1 (centres unmarked) [Example 6]
A. 129.1%

Q. Try this molecule too: CCCSS/C=C/C[S+]([O-])c1ccc(OC)cc1 (centres unmarked) [Example 29]
A. 69.9%

Q. Try this molecule too: CCCSS/C=C\C[S+]([O-])c1ccc(OC)cc1 (centres unmarked) [Example 30]
A. 52.9%

----------
Assignment: determine reported Inhibitory activity (%) HDAC 8 for the given compounds.
target: HDAC 8 (Homo sapiens, UniProt Q9BY41); test: HDAC enzyme fluorescence assay, HDAC 8; format: biochemical; parameters: concentration or dose not given beside the values; settings: (HDAC inhibitory activity of example compound/HDAC inhibitory activity of SAHA) × 100
Answer in %, number only, no unit symbol.

Q. Observed Inhibitory activity (%) HDAC 8 on HDAC 8 (Homo sapiens, UniProt Q9BY41) for COc1cccc([S+]([O-])C/C=C/SSCc2ccc(Cl)c(Cl)c2)c1 (stereo not drawn) , please.
A. 138.9

Q. Try this compound too: CCCSS/C=C\C[S+]([O-])c1cccc(OC)c1 (stereo not drawn)
A. 147.2

Q. Try this compound too: [O-][S+](C/C=C/SSCc1ccccc1)c1ccccc1 (stereo not drawn)
A. 88.6

meta.source: patent US11230525B2
